Tested on: MS2 coat protein
Test: apparent KD of MS2 coat protein; designed switch direction (-1 OFF switch, 1 ON switch): -1; higher = weaker reporter binding
Conditions: input ligand: FMN 200 uM
observation.type: apparent KD of MS2 coat protein (nM)

input.sequence	system	endpoint.result
GGCAGACAUGAGGAUCACCCAUGUCAGGAUAUGUGGCGAUCGUCGAAAGACGAUAGCCACAGAAGGGACAUGCC [Eli x1 4.20] (Eterna round: R97, puzzle: Exclusion 1)	MS2 coat protein	40.7
GGAUCGAAAGUGAGGAUAUACCUAUGGAUACAUAGGUAGAAGGCACAUGAGGAUCACCCAUGUUCCUACGGUCC [Eli bmx4 4.10] (Eterna round: R97, puzzle: Brourd's mod of Exclusion 4)	MS2 coat protein	114
UUUAUGCUAGGAUAUGCACCCUCGAACAUGAGGAUCACCCAUGUACAAUAAACGCAUGGAGCAGAAGGAGCUCCGA [EX5 A.5] (Eterna round: R97, puzzle: Exclusion 5)	MS2 coat protein	203
UUUGUUUGCACAGGAUAUUGUUAUUUUAUUUUUCAAGAAGGGUGUACAUGAGGAUCACCCAUGUUAAGGUUUAAUCUUUCACUU [JR_ExcNG1_Sub010] (Eterna round: R96, puzzle: Exclusion NG 1)	MS2 coat protein	346
GCAGCAUAGAUAACAGUCUGAUACAUGAGGAUCACCCAUGUACAGGAUAUGGUCUGGAUUACAGGCCAGAAGGGUACAAGCUGC [Eli exng3 - 014] (Eterna round: R96, puzzle: Exclusion NG 3)	MS2 coat protein	10.9
